biological target: Transcription factor E2F1 (Homo sapiens) (UniProt Q01094); assay: ATG_E2F_CIS: Attagene CIS-FACTORIAL HepG2 Assay for human E2F Transcription Factor 1 (AID 2282935); conditions: HepG2 Attagene cis-reporter, E2F reporter RNA transcripts; actives raise or lower the signal
Sequence (Q01094 whole entry, looked up): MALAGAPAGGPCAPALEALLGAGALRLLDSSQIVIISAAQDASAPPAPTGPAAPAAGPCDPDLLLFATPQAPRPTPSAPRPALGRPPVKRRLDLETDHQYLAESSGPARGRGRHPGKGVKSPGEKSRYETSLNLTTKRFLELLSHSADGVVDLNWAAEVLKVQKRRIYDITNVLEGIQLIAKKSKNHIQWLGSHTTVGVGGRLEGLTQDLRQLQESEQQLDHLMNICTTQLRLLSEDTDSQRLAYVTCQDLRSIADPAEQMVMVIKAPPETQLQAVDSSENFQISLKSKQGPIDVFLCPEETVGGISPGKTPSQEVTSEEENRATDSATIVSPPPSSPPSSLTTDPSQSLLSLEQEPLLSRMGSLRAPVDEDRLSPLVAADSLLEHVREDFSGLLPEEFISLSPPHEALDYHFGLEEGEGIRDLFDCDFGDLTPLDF
The source made the active and inactive calls. The calls were made as follows: active = hit-call score of the fitted dose curve at least 0.9, where 1 is the maximum; inactive = score below 0.9.
Possible outcomes: active, inactive

>>> df
                                    molecule  class_name
 0                    O=C(O)c1ccc(C(=O)O)cc1    inactive
 1                     CC(C)=CCC[C@H](C)CC=O    inactive
 2                              Cc1ccc(S)cc1    inactive
 3                    O=C(O)CCCCCCCCCCC(=O)O    inactive
 4                       O=C1NC(=O)c2ccccc21    inactive
 5           O=P(c1ccccc1)(c1ccccc1)c1ccccc1    inactive
 6                             OCCOCCOCCOCCO    inactive
 7                  Nc1ccc(S(=O)(=O)O)c(N)c1    inactive
 8    CC(C)(C)c1cc(CCC(=O)NN)cc(C(C)(C)C)c1O    inactive
 9  BrC1CCC(Br)C(Br)CCC(Br)C(Br)CCC1Br (stereo not given)    inactive
10                      Nc1cc(N)cc(C(=O)O)c1    inactive
11  CC1(C)OC[C@@H]2O[C@@]3(C(=O)O)OC(C)(C)O[C@H]3[C@@H]2O1    inactive
12                  C/C=C(\C)C(=O)OCc1ccccc1    inactive
13  O=C=NC1CCC(CC2CCC(N=C=O)CC2)CC1 (stereo not given)    inactive
14              COC(C)CCO (stereo not given)    inactive
15                            CCCCCOC(=O)CCC    inactive
16                                    ClCCCl    inactive
17               CC(=O)/C=C/C1=C(C)CCCC1(C)C    inactive
18  CCCCCCCCCCCCCCCC(=O)OC[C@H](O)[C@H]1OC(=O)C(O)=C1O    inactive
19                    CNC[C@H](O)c1cccc(O)c1    inactive
20                                 COC(=O)OC    inactive
21  COC(=O)C1=C(C)NC(C)=C(C(=O)OCCN(C)Cc2ccccc2)C1c1cccc([N+](=O)[O-])c1 (stereo not given)      active
22  O=C1OC2(c3cc(Br)c(O)c(Br)c3Oc3c2cc(Br)c(O)c3Br)c2c(Cl)c(Cl)c(Cl)c(Cl)c21    inactive
23                   Fc1c(F)c(F)c(Br)c(F)c1F    inactive
24                             Cc1cccc(C)c1C    inactive
25                              CC(=O)C(=O)O    inactive
26                 OCC(CO)(CO)COCC(CO)(CO)CO    inactive
27                COc1cc(C=O)ccc1OC(=O)C(C)C    inactive
28              CC(=O)c1c(C)cc(C(C)(C)C)cc1C    inactive
29                   NNc1nc(-c2ccc(N)cc2)cs1    inactive

* * *

read-out: C-C motif chemokine 2 (Homo sapiens); assay: BSK_KF3CT_MCP1: BioMAP Diversity Plus: KF3CT Assay for Monocyte Chemoattractant Protein 1 (MCP1/CCL2) Biomarker Activity (AID 2283073); details: primary human keratinocytes with fibroblasts; actives raise or lower the signal
The source made the active and inactive calls. The calls were made as follows: active = hit-call score of the fitted dose curve at least 0.9, where 1 is the maximum; inactive = score below 0.9.
Possible outcomes: active, inactive

>>> df
                                    molecule  class_name
 0                          CC(=O)Nc1ccccc1O    inactive
 1                        COC(=O)c1ccc(C)cc1    inactive
 2       CCCCC(CC)COCCC#N (stereo not drawn)    inactive
 3  C[C@H]1C[C@@H]2[C@H]([C@@H](O)C[C@@]3(C)[C@H]2CC[C@]3(O)C(=O)CO)[C@@]2(C)C=CC(=O)C=C12    inactive
 4  O=C(O)c1cn(-c2ccc(F)cc2)c2cc(N3CCNCC3)c(F)cc2c1=O    inactive
 5                                   NCCNCCN    inactive
 6                           CC(C)Oc1ccccc1O    inactive
 7                               CCCCCCCCC=O    inactive
 8                              CCCCCCCCCC=O    inactive
 9                    CNC[C@H](O)c1cccc(O)c1      active
10  OC[C@H]1O[C@H](O[C@]2(CCl)O[C@H](CCl)[C@@H](O)[C@@H]2O)[C@H](O)[C@@H](O)[C@H]1Cl    inactive
11                 Nc1cc([N+](=O)[O-])ccc1Cl    inactive
12                  Nc1cc([N+](=O)[O-])ccc1O    inactive

* * *

assay: ATG_M_61_CIS: Attagene CIS-FACTORIAL HepG2 Assay for M61 Transcription Factor (Internal Marker) (AID 2282937); settings: HepG2 Attagene CIS-FACTORIAL M61 internal marker reporter; actives raise or lower the signal
Calls of active or inactive are those of the source. Rule for the calls: active = hit-call score of the fitted dose curve at least 0.9, where 1 is the maximum; inactive = score below 0.9.
Possible outcomes: active, inactive

                                    molecule  class_name
 0                    CCCCC[Si](OCC)(OCC)OCC    inactive
 1                            CCCCCCCCCCCCSC    inactive
 2                          NC(=O)c1ccccc1Cl    inactive
 3                           CCCCc1ccc(N)cc1    inactive
 4  C=CC(C)(O)CCC=C(C)CCC=C(C)C (stereo not drawn)      active
 5  CC(=O)O[C@]1(C(C)=O)CC[C@H]2[C@@H]3C[C@H](C)C4=CC(=O)CC[C@]4(C)[C@H]3CC[C@@]21C    inactive
 6                      O=C1CCCCCCCCCCCCCCO1    inactive
 7  CC(C)(Oc1ccc(CCNC(=O)c2ccc(Cl)cc2)cc1)C(=O)O    inactive
 8  C[C@H]1C[C@H]2[C@@H]3CCC4=CC(=O)C=C[C@]4(C)[C@@]3(F)[C@@H](O)C[C@]2(C)[C@@]1(O)C(=O)COP(=O)(O)O    inactive
 9                     Nc1ccc(S(N)(=O)=O)cc1    inactive
10          O=[N+]([O-])c1cc(C(F)(F)F)ccc1Cl    inactive
11  CCCCCCCCCCCCCCCCCC(=O)OCC(CC)CCCC (stereo not drawn)    inactive
12                        CCOC(=S)SSC(=S)OCC    inactive

* * *

experiment: ATG_GATA_CIS: Attagene CIS-FACTORIAL HepG2 Assay for human GATA Binding Protein (AID 2282944); conditions: HepG2 GATA cis-element reporter, Attagene multiplex mRNA; actives raise or lower the signal
Active and inactive are the calls of the source. How the source made its calls: active means hit-call score of the fitted dose curve at least 0.9, where 1 is the maximum; inactive means score below 0.9.
Possible outcomes: Yes for active, No for inactive

In [3]: df
Out[3]:
                                    molecule  class_name
 0                                 CC(C)=CCO          No
 1     CC1CCC(C(C)CS)CC1S (stereo not drawn)         Yes
 2                              C=C(C)C(=O)O          No
 3      CC(C)=CCCC(C)CC=O (stereo not drawn)          No
 4  CC(CN1c2ccccc2Sc2ccccc21)N(C)C (stereo not drawn)          No
 5                           CC(C)Oc1ccccc1O          No
 6  O=C(O)C[C@H](O)C[C@H](O)/C=C/c1c(C2CC2)nc2ccccc2c1-c1ccc(F)cc1          No
 7  C#C[C@]1(O)CC[C@H]2[C@@H]3CCC4=Cc5oncc5C[C@]4(C)[C@H]3CC[C@@]21C         Yes
 8                 CC(C)=CCCC(C)=CCCC(C)=CCO          No
 9  CCN(CC)c1ccc(C(=C2C=CC(=[N+](CC)CC)C=C2)c2ccc(S(=O)(=O)O)cc2S(=O)(=O)[O-])cc1          No
10                         C=CC(=O)NCOCC(C)C          No
11                   CCCC(=O)c1cc(O)c(O)cc1O          No
12                       NC(=O)Nc1ccc(Cl)cc1          No
